Tested on: Plasmodium falciparum
assay: Hit confirmation in dose-response curve in NF54 pLDH assay, at 72h
Format: functional, organism-based
Design: timepoint 72 hour
assay-setup: NF54, Erythrocyte
// returns Not fulfilled unless IC50 is strictly below 3 µM, in which case Fulfilled

CCN(C(=O)Cn1cc(-c2ccccc2)c2ncn(CC)c(=O)c21)c1ccccc1    Not fulfilled

Qu. Hello, is IC50 of the following compound strictly smaller than 3 µM? `CNc1nc(NCc2ccccc2)nc2ccccc12`
Ans. Fulfilled

Qu. Lab log: compare recorded IC50 with 3 µM; is it strictly lower for `CCc1nc2c(C(=O)N3CCOc4c(C)cc(C)cc43)ccnc2[nH]1` ?
Ans. Not fulfilled

====

Test system: Plasmodium falciparum
assay: Hit confirmation in dose-response curve in NF54 pLDH assay, at 72h
Type: functional, organism-based
Parameters: timepoint 72 hour
assay-setup: NF54, Erythrocyte
Form field: log10 of IC50 (one value per entry).
Lab note - IC50 converted to log10 from values in µM.

// recorded log10 of IC50 for `Cc1cc(NC(=O)c2ccccn2)n(-c2nc3ccccc3o2)n1` : 0.56

# log10 of IC50 of `Cc1ccc(S(=O)(=O)c2c(NS(=O)(=O)c3ccc(F)cc3)n(CCc3ccccc3)c3nc4ccccc4nc23)cc1` = 0.64

Form field log10 of IC50, entry `CC(=O)Nc1ccc(-c2cn3c4ccccc4ccc3[n+]2C)cc1` : -0.58

Form: compound = `CN(C)Cc1ccc(NC(=O)c2cc(F)cc3c(=O)c4cc(F)ccc4[nH]c23)cc1` ; log10 of IC50 = 0.08

log10 of IC50 measured on COc1ccccc1C1c2[nH]c3ccccc3c2C[C@H]2C(=O)N(CC(O)c3ccccc3)CC(=O)N12 (stereo not given in full) = 0.95

====

Tested on: Plasmodium falciparum
assay: Hit confirmation in dose-response curve in NF54 pLDH assay, at 72h
Format: functional, organism-based
Parameters: timepoint 72 hour
assay-setup: NF54, Erythrocyte
Items are presented alongside their recorded pIC50.
Keep it numeric: pIC50 is minus log10 of the concentration in mol/L.

CC[N+](CC)(CC(=O)OC1CC2CCC1(C)C2(C)C)CC(=O)OC1CC2CCC1(C)C2(C)C (stereo not given)    5.55
Cc1ccc(NC(=O)N2CCCN(c3ccc(NC(=O)c4cccs4)cc3C(=O)NCc3ccc(F)cc3)CC2)cc1    5.10
Cc1cc(C(=O)N[C@@H](C)c2nc(-c3cccnc3)cs2)cc(O)n1    5.65
CC[n+]1c(/C=C/N(C)c2ccccc2)oc2ccc(-c3ccccc3)cc21    6.05

Per the record, `CC(C)c1cccc(Nc2nc3ccncc3n(C(C)C)c2=O)c1` has pIC50 of 5.55

====

System: Plasmodium falciparum
assay: Hit confirmation in dose-response curve in NF54 nanoGlo assay, at 72h
Format: functional, organism-based, Erythrocyte
Parameters: timepoint 72 hour
assay-setup: Plasmodium falciparum, NF54, Erythrocyte, 72 h
pIC50: −log10 of the molar value.
The threshold is inclusive: pIC50 of exactly 6 counts as met; values below receive not met.

Observe how each entry below is paired with its result.
O=C(NCCN1CCCC1)c1ccc2nc(-c3ccc(Cl)cc3)cn2c1    not met
Cc1ccc(S(=O)(=O)c2c(NS(=O)(=O)c3ccc(F)cc3)n(CCc3ccccc3)c3nc4ccccc4nc23)cc1    not met
COc1ccc2[nH]c3c(c2c1)CC(C(=O)O)NC3c1ccc(OC)c(CN2CCN(c3ccccc3F)CC2)c1 (stereo unspecified)    not met
CC(C)c1cc(=O)[nH]c(-n2nc(C3CC3)cc2NC(=O)COc2ccc3ccccc3c2)n1    not met
CCOc1cccc(-c2ccc3nc(-c4cccc(OC)c4)c(CCC(=O)NCCN4CCCC4)n3c2)c1    met

Qu. Decide: pIC50 of `CC1(C)Cc2nc3ccccc3c(NCc3ccccc3)c2[C@@H](O)C1` >= 6?
Ans. not met

Qu. Could you please find out whether `C[C@H]1CCCN(c2nc(-c3ccccn3)nc3ccccc23)C1` has pIC50 that meets 6 or exceeds it?
Ans. met

Qu. Reported pIC50 at or above 6? `Cc1ccccc1Cn1cnc2c1c(=O)n(C1CCCCC1)c(=O)n2-c1ccccc1Cl`
Ans. not met

Qu. Could you please find out whether `O=C(Nc1[nH]c(=O)ncc1F)c1cc(F)c(F)cc1Br` has pIC50 that meets 6 or exceeds it?
Ans. met
